The reported numbers originate from paper PMC6718548.

tested on: phosphorylated tau at Ser396 in SH-SY5Y cells; experiment: pSer396Tau ELISA in SH-SY5Y neuroblastoma cells; type: cell-based, human; details: overnight (16 hr) treatment, single lot, read-out: Cell assay EC50 pTau at Ser396
experimentalEndpoint: EC50 (nM)

I: COC(=N)c1nc2ccc3ncnc(Nc4ccc(Cl)cc4Cl)c3c2s1 [EHT-5372]
II: O=C1NC(Nc2ccccc2)=N/C1=C\c1ccc2c(c1)OCO2 [Leucettine L41]
When their EC50 values are compared, which is larger, I or II ? Returns: label corresponding to the selected item.
I
(I: 2500 nM, II: 1400 nM)
